- Test system: ATP;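 note: ATP exposure 15 min at 22 °C before imaging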
- Measurement Description: switch fluorescence ratio, 500 uM ATP over buffer (Cy3 cluster intensity, sum of 5 cycles each) (fold (ratio)); higher = stronger signal-on switching upon ATP binding; sequences stand for … in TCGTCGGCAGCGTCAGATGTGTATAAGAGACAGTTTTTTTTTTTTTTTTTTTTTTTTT…TC
- Details: aptamer strand: ATP DNA aptamer (quencher-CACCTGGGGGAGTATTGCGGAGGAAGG + anchor), 100 nM annealed; ATP concentration: 500 uM
Reported switch fluorescence ratio is given for each of the following sequences.
Observed Property: switch fluorescence ratio

| Item Sequence | Observed Property | Result |
| --- | --- | --- |
| GAGCGATGTC | switch fluorescence ratio | 1.07 |
| ACCTGTATA | switch fluorescence ratio | 1.05 |
| GCCTGGGGAA | switch fluorescence ratio | 0.984 |
| TGGGGGGTAT | switch fluorescence ratio | 1 |
| ATGGTGTGTG | switch fluorescence ratio | 1.01 |
| AAGGGGCATT | switch fluorescence ratio | 1.01 |
| GGGGGCAAAA | switch fluorescence ratio | 1.03 |
| TGCTCGGGGG | switch fluorescence ratio | 1.15 |
| GCCTGGGTTC | switch fluorescence ratio | 0.985 |
| CAAAGTTAAC | switch fluorescence ratio | 0.949 |
| CGATAGATGT | switch fluorescence ratio | 1 |
| TTGATGGTCA | switch fluorescence ratio | 0.943 |
| GAGTAGGCGC | switch fluorescence ratio | 0.955 |
| AATCAATTTT | switch fluorescence ratio | 1.01 |
| TTTTTCGTAA | switch fluorescence ratio | 1.04 |
| TTTGCCGGTA | switch fluorescence ratio | 1.01 |
| TATTAGACGA | switch fluorescence ratio | 0.963 |
| GGATTGTAAT | switch fluorescence ratio | 0.996 |
| AATATTGAAG | switch fluorescence ratio | 1 |
| GTTGGGAGGA | switch fluorescence ratio | 0.989 |
| GAATGGGGTC | switch fluorescence ratio | 0.976 |
| ACTGGCTGAG | switch fluorescence ratio | 1.01 |
| TTTATATGAA | switch fluorescence ratio | 0.97 |

---

- Test system: ATP;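 note: ATP exposure 15 min at 22 °C before imaging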
- Measurement Description: switch fluorescence ratio, 500 uM ATP over buffer (Cy3 cluster intensity, sum of 5 cycles each) (fold (ratio)); higher = stronger signal-on switching upon ATP binding; sequences stand for … in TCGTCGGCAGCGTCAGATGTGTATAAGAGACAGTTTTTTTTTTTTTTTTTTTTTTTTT…TC
- Details: aptamer strand: ATP DNA aptamer (quencher-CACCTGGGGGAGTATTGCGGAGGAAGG + anchor), 100 nM annealed; ATP concentration: 500 uM

| Item Sequence | switch fluorescence ratio |
| --- | --- |
| TAATCCTTTG | 1.01 |
| GTAATATTAA | 1.01 |
| TAATCCATTT | 1.02 |
| TTCGTACGTC | 1.01 |
| ACCAAGCTTT | 1.04 |
| TGGGGTTCTT | 0.993 |
| GATTTAATTT | 1 |
| TTGTGCGCGG | 1.04 |
| TGAGGTTTTC | 1.02 |
| ATGGTTTTTG | 1.01 |

---

- Test system: ATP;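 note: ATP exposure 15 min at 22 °C before imaging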
- Measurement Description: switch fluorescence ratio, 500 uM ATP over buffer (Cy3 cluster intensity, sum of 5 cycles each) (fold (ratio)); higher = stronger signal-on switching upon ATP binding; sequences stand for … in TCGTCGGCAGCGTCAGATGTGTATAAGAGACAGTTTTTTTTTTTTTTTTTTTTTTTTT…TC
- Details: aptamer strand: ATP DNA aptamer (quencher-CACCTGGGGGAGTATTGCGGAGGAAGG + anchor), 100 nM annealed; ATP concentration: 500 uM

| Item Sequence | switch fluorescence ratio |
| --- | --- |
| GGTGTGTACG | 1.28 |
| ATATCTTAGT | 1.02 |
| ATTAAATTAG | 1.04 |
| ATGGATGGTG | 0.96 |
| GGGGGGGGAC | 1.02 |
| TAAGGGGATG | 0.99 |
| ACTAACGGGG | 1.35 |
| CAGTACGCGT | 1.04 |
| ATTTTGGGAC | 1.03 |
| CTAAACTAGG | 1.02 |
| TTTTCTACGG | 0.989 |
| CCAGTCGTCT | 1.02 |
